# Tgt: human glucagon receptor (human) (UniProt P47871)
# Sequence (P47871 26-477): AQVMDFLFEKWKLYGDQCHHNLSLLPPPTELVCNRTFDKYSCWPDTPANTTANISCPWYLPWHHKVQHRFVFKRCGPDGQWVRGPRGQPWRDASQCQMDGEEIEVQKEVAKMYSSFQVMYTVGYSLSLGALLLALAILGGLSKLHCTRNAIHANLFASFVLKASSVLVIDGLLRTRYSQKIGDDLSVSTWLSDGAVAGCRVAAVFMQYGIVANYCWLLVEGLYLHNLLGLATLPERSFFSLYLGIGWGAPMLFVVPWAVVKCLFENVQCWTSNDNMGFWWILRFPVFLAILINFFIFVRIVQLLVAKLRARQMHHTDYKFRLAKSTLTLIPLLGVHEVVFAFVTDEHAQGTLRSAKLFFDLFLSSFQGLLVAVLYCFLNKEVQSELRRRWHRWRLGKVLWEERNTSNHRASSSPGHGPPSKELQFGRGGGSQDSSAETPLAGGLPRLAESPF
# Assay Protocol: cell-based or functional assay
Starred links: 1 amine or outer side, 2 acyl side, 3 side chain; linkers in the order of their positions; H or OH if unused. Non-standard residues stand in square brackets, D forms with d. Groups on a side chain read outwards from the residue. No end group written: not given here. *: point of attachment. C20 diacid = O=C(O)CCCCCCCCCCCCCCCCCCC(=O)*; C18 diacid = O=C(O)CCCCCCCCCCCCCCCCC(=O)*; γGlu = O=C(O)[C@H](CCC(=O)[*:2])N[*:1]; 4Pal = N[C@@H](Cc1ccncc1)C(=O)O; αMeL = CC(C)C[C@](C)(N)C(=O)O; Dab = NCC[C@H](N)C(=O)O; AEEA = NCCOCCOCC(=O)O; Aib = CC(C)(N)C(=O)O
# Relative cAMP EC50 values compiled below
Your answer is read as nM, so omit the unit and give the number.

These solved cases illustrate the format of a correct answer.
q: Report Relative cAMP EC50 for Y[Aib]QGTFTSDYSI[αMeL]LDKQAAK([AEEA-AEEA-γGlu-C20 diacid])QFVEWLIA[Aib]GPSSGEPPPSEG-NH2 [Example 326]
a: 5.34

q: Report Relative cAMP EC50 for YXQGTFTSDYSIXLDKKAAXAFIEYLLEGGPSSGEPPPSEG (synthetic construct; SITE 2: note = 2-Aminoisobutyric Acid; SITE 13: note = alpha-methyl-leucine; SITE 17: note = Lysine is chemically modified through conjugation of the epsilon-amino group of the Lysine side chain with (2-[2-(2-Amino-ethoxy)-ethoxy]-acetyl)2-(gamma-Glu)-CO-(CH2 )18-CO2H; SITE 20:) [Example 294]
a: 1.07

q: Report Relative cAMP EC50 for Y[Aib]QGTFTSD[4Pal]S[Dab][αMeL]LDKK([AEEA-γGlu-C18 diacid])AQ[Aib]AFIEYLIE[Aib]GPSSGAPPPSGS-NH2 [Example 803]
a: 9.75

q: Report Relative cAMP EC50 for YXQGTXTSDXXIXLDXKAQXEFIEXLIEGGPSSGEPPPSGGGE (Aib, αMe residues, 4Pal, Orn, Me4Pal; acylated K; amide; synthetic construct; SITE 2: note = 2-Aminoisobutyric Acid; SITE 6: note = alpha-methyl-L-phenylalanine; SITE 10: note = 3-(4-Pyridyl)-L-alanine; SITE 11: note = alpha-methyl-L-serine; SITE 13: note = alpha-methyl-leucine; SITE 16: note = L-ornithine; SITE 17: note = Lysine is chemically modified th) [Example 1175]
a: 2.08

q: Report Relative cAMP EC50 for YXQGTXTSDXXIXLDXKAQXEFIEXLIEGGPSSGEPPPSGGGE (non-natural residues; acylated Lys C18 diacid; C-term amide; synthetic construct; SITE 2: note = 2-Aminoisobutyric Acid; SITE 6: note = alpha-methyl-L-phenylalanine; SITE 10: note = 3-(4-Pyridyl)-L-alanine; SITE 11: note = alpha-methyl-L-serine; SITE 13: note = alpha-methyl-leucine; SITE 16: note = L-ornithine; SITE 17: note = Lysine is chemically modified th) [Example 1169]
a: 2.43

Would you kindly look at the next entry?
q: Report Relative cAMP EC50 for YXQGTXTSDXXIXLDXKAAXEFIEXLIEGGPSSGAPPPSGGGE (synthetic construct; SITE 2: note = 2-Aminoisobutyric Acid; SITE 6: note = alpha-methyl-2-fluoro-L-phenylalanine; SITE 10: note = 3-(4-Pyridyl)-L-alanine; SITE 11: note = alpha-methyl-L-serine; SITE 13: note = alpha-methyl-leucine; SITE 16: note = L-ornithine; SITE 17: note = Lysine is chemically mo) [Example 747]
a: 1.71

Data origin: patent US20240270821A1
